Molecular target: FGFR3 (UniProt P22607)
Sequence (P22607 whole entry, looked up): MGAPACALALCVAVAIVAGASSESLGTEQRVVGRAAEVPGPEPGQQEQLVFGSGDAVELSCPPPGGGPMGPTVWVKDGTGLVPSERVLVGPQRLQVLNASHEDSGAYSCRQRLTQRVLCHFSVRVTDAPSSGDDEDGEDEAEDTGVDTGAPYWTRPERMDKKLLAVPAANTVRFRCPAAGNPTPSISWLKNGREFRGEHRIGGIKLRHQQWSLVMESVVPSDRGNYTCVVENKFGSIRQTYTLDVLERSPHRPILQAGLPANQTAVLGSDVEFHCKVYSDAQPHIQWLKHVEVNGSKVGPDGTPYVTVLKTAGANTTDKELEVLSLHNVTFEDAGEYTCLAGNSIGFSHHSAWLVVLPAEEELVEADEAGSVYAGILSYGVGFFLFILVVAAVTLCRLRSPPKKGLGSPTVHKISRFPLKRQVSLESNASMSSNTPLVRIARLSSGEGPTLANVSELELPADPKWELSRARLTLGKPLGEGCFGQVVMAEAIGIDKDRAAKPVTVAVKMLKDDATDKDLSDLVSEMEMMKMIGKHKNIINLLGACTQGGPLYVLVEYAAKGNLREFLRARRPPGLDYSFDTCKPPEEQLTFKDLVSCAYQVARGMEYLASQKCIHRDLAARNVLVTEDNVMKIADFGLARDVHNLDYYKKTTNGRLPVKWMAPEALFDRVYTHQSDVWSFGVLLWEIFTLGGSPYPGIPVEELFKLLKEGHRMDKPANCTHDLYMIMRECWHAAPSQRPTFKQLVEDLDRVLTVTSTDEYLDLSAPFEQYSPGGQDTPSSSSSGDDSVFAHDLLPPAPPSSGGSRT
Test: phosphorylation enrichment, bacterial display (enrichment ratio); higher = better substrate or ligand; peptides without Tyr show the background;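 note: 11-residue human phosphosite peptides and single-mutation variants displayed on the E. coli surface, counted by deep sequencing, each peptide's frequency after selection divided by its frequency in the unselected input library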;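 note: frequency after pTyr selection over input frequency; kinase dosed for 20-30% of maximal phosphorylation in three min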
Cut-off 0.7 on phosphorylation enrichment, inclusive. At or above means Condition met; below means Condition not met.

> print(dat)
                              seq.text     category.label
 1   NFRRGYHLQVL [CD200R1L_Y138_H135R]  Condition not met
 2          VNKIFYPDFIV [LIG3_Y768_YF]  Condition not met
 3            SMEGLYSSTQD [CLIC5_Y111]      Condition met
 4              HQIQSYTCEID [DES_Y331]      Condition met
 5       CTTIDYNYMCN [TP53_Y234_H233D]      Condition met
 6              GRLVEYDIDEV [SMS_Y134]      Condition met
 7        GANSEYIIAEK [ECHS1_Y35_F33S]  Condition not met
 8              YTGNTYRVGDT [FN1_Y106]  Condition not met
 9         AQAGEYGAEAL [HBA1_Y25_H21Q]  Condition not met
10    VIKDKYPKAHF [APTX_Y209_R213H_YF]  Condition not met
11  YGSGNYNVFGN [HNRNPA2B1_Y300_D302V]  Condition not met
12           TRHDEYLEVTK [MAP1A_Y2217]      Condition met
13            RRVEPYGENFN [APOA4_Y310]  Condition not met
14        SGPRCYTIAAL [TTR_Y125_R124C]  Condition not met
15      TDHLQYFDSNK [ARAP1_Y359_R358Q]      Condition met
16        VDTFWYKFLKP [EPM2A_Y86_R91P]      Condition met
17           LKETGYVVERP [BCLAF1_Y466]  Condition not met
18     EPVSDYINADI [PTPN11_Y304_N308D]      Condition met
19  DKEKWYPLGTS [PIK3C2G_Y1438_N1442T]  Condition not met
20           GGRKGYGDFSR [RECQL5_Y478]  Condition not met
21      CGTPDNIAPEI [PRKCG_Y521_Y521N]      Condition met
22          GEDPIYVTLEG [RTKtide_2018]      Condition met
23      MCDKEYYSVHN [MET_Y1234_Y1230C]      Condition met
24            IDQDKYAVRFI [FLNA_Y2388]  Condition not met
25        SGPRHYTIAAL [TTR_Y125_R124H]  Condition not met
26     ATARPYSPYII [LRP5_Y1528_R1529S]      Condition met

* * *

Tested on: c-Abl (mouse)
Assay: phosphorylation enrichment, bacterial display (enrichment ratio); higher = better substrate or ligand; peptides without Tyr show the background
Entries and their phosphorylation enrichment values follow.
EXPERIMENTAL READOUT: phosphorylation enrichment

> print(dat)
                      seq.text         system  observed.value
1     TKAEKYVNKAK [PLCG1_Y991]  c-Abl (mouse)            0.92
2  PGIRMYQVQFN [LRFN1_Y454_YF]  c-Abl (mouse)           0.636
3     LKALHYMVQTS [SACS_Y3367]  c-Abl (mouse)           0.533

* * *

Entries and their phosphorylation enrichment values follow.
Biological target: FGFR1 (UniProt P11362)
Sequence (P11362 whole entry, looked up): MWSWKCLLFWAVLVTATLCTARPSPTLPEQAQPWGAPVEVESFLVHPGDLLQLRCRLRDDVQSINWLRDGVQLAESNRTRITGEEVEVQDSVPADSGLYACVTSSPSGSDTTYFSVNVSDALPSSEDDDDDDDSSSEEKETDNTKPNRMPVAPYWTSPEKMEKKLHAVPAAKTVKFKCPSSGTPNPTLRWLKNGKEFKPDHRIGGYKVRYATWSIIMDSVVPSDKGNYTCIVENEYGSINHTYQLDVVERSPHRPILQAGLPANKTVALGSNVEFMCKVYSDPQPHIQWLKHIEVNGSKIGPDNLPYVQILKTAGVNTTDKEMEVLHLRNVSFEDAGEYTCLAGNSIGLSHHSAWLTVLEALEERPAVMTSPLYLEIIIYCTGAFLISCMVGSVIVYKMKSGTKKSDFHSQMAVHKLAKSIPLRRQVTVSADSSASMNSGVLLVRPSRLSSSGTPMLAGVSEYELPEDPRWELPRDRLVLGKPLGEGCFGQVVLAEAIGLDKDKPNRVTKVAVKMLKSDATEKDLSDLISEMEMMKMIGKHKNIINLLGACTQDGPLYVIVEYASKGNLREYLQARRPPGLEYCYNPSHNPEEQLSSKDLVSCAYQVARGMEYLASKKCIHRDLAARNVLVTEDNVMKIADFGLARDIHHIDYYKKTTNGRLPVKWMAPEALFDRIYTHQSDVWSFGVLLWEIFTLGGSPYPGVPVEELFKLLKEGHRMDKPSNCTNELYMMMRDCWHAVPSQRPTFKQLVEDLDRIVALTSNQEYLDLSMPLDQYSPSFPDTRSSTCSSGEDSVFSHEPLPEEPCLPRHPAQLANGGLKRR
Assay: phosphorylation enrichment, bacterial display (enrichment ratio); higher = better substrate or ligand; peptides without Tyr show the background
EXPERIMENTAL READOUT: phosphorylation enrichment

> print(dat)
                         seq.text                  system  observed.value
1  HDRREYSRFEK [ITGB7_Y758_Y753H]  FGFR1 (UniProt P11362)           0.585
2   GLDSSYLLRDS [SH2D1A_Y29_G27S]  FGFR1 (UniProt P11362)           0.613
3         EAAFVYAISSA [WNT4_Y113]  FGFR1 (UniProt P11362)           0.586
4   FIILIYAMKKK [SLCO1B1_Y645_YF]  FGFR1 (UniProt P11362)           0.509
5  LFSLGYHQSLW [GANAB_Y396_R400L]  FGFR1 (UniProt P11362)            0.51
6       SFSGEYGGGGG [ZG16_Y30_YF]  FGFR1 (UniProt P11362)           0.496

* * *

Entries and their phosphorylation enrichment values follow.
System: c-Abl (mouse)
Assay: phosphorylation enrichment, bacterial display (enrichment ratio); higher = better substrate or ligand; peptides without Tyr show the background
EXPERIMENTAL READOUT: phosphorylation enrichment

> print(dat)
                                 seq.text         system  observed.value
 1  NPSFNYEIVNQ [DYNC1H1_Y3379_R3384Q_YF]  c-Abl (mouse)           0.586
 2      VTRDEYPSNPM [CEMIP2_Y1015_I1010V]  c-Abl (mouse)           0.523
 3            TVFSDYLHPQF [CCPG1_Y569_YF]  c-Abl (mouse)            1.53
 4       AIIGIYNLRDD [CDH23_Y2949_I2950N]  c-Abl (mouse)           0.691
 5          DQGEQYKKELE [LMNA_Y259_V256G]  c-Abl (mouse)            1.15
 6      QMVGMYASFFM [AVPR2_Y124_S127F_YF]  c-Abl (mouse)            4.72
 7              ALTRSYIREKV [CYP2C8_Y243]  c-Abl (mouse)           0.417
 8             PSQRRYVFFFS [PTEN_Y174_YF]  c-Abl (mouse)            1.27
 9             SISLRYEGRVF [ABL1_Y167_YF]  c-Abl (mouse)           0.696
10            FLLRVYSIFSK [SGCE_Y38_T36R]  c-Abl (mouse)           0.987

* * *

Molecular target: EPHB1 (UniProt P54762)
Sequence (P54762 whole entry, looked up): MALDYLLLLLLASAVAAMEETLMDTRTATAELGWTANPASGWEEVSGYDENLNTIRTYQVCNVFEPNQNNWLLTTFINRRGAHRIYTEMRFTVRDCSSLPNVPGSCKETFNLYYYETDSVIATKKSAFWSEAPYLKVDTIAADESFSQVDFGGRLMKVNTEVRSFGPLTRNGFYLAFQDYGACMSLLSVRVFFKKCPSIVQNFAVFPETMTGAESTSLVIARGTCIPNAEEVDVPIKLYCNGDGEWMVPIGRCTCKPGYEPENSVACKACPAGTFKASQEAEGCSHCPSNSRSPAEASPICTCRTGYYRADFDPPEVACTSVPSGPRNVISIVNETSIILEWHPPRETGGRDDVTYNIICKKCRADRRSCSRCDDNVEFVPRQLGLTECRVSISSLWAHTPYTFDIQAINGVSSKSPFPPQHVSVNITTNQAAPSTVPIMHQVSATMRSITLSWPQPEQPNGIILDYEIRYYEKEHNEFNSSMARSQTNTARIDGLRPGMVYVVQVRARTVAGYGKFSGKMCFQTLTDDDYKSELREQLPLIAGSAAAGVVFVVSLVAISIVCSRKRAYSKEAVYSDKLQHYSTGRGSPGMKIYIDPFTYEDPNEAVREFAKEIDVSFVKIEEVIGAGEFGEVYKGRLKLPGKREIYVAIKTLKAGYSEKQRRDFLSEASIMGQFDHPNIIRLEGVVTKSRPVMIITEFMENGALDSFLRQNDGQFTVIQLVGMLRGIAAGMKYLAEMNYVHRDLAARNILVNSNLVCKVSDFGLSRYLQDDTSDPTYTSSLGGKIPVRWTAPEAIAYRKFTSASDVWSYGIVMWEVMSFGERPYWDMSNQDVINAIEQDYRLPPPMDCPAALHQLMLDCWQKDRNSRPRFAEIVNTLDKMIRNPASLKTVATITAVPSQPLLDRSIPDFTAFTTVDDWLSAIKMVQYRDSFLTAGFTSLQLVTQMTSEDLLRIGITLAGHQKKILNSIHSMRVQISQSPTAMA
Test: phosphorylation enrichment, bacterial display (enrichment ratio); higher = better substrate or ligand; peptides without Tyr show the background
Entries and their phosphorylation enrichment values follow.
EXPERIMENTAL READOUT: phosphorylation enrichment

> print(dat)
                            seq.text                  system  observed.value
 1    RLSELYLRRNP [CFAP410_Y68_R73P]  EPHB1 (UniProt P54762)           0.372
 2     IKNFKYGIEEH [GJA1_Y137_K134N]  EPHB1 (UniProt P54762)           0.351
 3      RGRSTCYWPRP [GAGE12J_Y9_Y9C]  EPHB1 (UniProt P54762)           0.688
 4         QTEAQYRFIYM [PTPN11_Y511]  EPHB1 (UniProt P54762)           0.835
 5           SGIYQYIIAKF [FOXL2_Y83]  EPHB1 (UniProt P54762)            10.6
 6     NCLRVYVAGRF [CRB1_Y711_E710V]  EPHB1 (UniProt P54762)           0.497
 7           KLIMEYLPYGS [JAK2_Y931]  EPHB1 (UniProt P54762)           0.493
 8      FCVVRYCWLRR [MPZ_Y181_Y177C]  EPHB1 (UniProt P54762)            0.45
 9         SPPPAYTPMSG [ERBB4_Y1056]  EPHB1 (UniProt P54762)           0.438
10          LIEQAYDNPHE [PRPF8_Y871]  EPHB1 (UniProt P54762)           0.638
11    SYCYRYRCAAW [SUMF1_Y344_R349W]  EPHB1 (UniProt P54762)           0.445
12  CATIHYNFMCN [TP53_Y234_T230A_YF]  EPHB1 (UniProt P54762)            0.68
